B1: ACBD3 (parent)
chain: YVASHKIEKEEQEKKRKEEEERRR

Variants of: B1
Protocol Text: protein stability index of a GFP-peptide fusion (GPS, HEK-293T) (PSI 1-6); higher = more stable;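 also: lentivirally expressed fusions sorted by FACS into six bins by GFP to DsRed ratio, PSI derived from sequencing read proportions per bin multiplied by bin number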
Condition Set: c terminus: a fixed tail appended
Attribute Measured: protein stability index
// return just the number, without any unit appended

Answered cases to consult:
Residue Sequence	protein stability index
YVASHKIEKEEQEKKRKEYEERRR [E19Y]	2.38
YVASHKIEKEEQEKKRKEEEERIR [R23I]	2.65
YVASHKIEKEEQEKKRKEEEELRR [R22L]	1.89

// moving on: another record for protein stability index
Exercise: Please report the measured protein stability index for YVASHKIEKEEQEKKRKEEEERQR [R23Q]
Solution: 2.71
